study.target: T1, FLAG-Mm_Fpr2 C-terminally fused to Renilla Luciferase 8 (mouse, UniProt O88536 1-351)
T1 sequence (looked up): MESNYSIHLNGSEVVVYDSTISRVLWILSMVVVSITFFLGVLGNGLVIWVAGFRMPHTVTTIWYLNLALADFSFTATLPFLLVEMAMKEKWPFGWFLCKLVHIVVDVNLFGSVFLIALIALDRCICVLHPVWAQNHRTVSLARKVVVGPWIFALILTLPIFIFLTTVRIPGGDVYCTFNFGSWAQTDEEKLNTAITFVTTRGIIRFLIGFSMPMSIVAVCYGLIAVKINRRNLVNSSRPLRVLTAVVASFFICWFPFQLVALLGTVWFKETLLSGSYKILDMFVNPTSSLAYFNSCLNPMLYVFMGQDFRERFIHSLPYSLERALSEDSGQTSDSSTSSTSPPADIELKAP
assay.summary: cell-based or functional assay
Where no end group is shown, it is not given here. [ ]: non-standard residue; d: D form. The star is where a group is joined. Palmitoyl = CCCCCCCCCCCCCCCC(=O)*; For = O=C*
Give BRET of receptor-RLuc8 with Venus-mGsi: Log EC50 (M) for every item shown.
# output: numeric value plus its unit

Recorded results for 2 binders are shown here.
1. For-MLFK [fMet-Leu-Phe-Lys (fMLFK)] : -4.52 log M
2. For-Met-Leu-Phe [fMet-Leu-Phe (fMLF)] : -4.58 log M

For each of the binders below, state BRET of receptor-RLuc8 with Venus-mGsi: Log EC50 (M).
1. {Palmitoyl-Palmitoyl}-KIHKKGMIKS (Pal is printed twice; the text speaks of N-terminal palmitoylation as the last step of the synthesis; also called pepducin; source: synthetic peptide (Fmoc solid phase, purified by preparative RP-HPLC)) [F2Pal10 (Pal-Pal-KIHKKGMIKS)]
2. WKYMVM (synthetic hexapeptide, all L residues; also called L-enantiomer of WKYMVm; source: bought: Tocris)
3. For-MTPMRKINPLMKLIN [MCT-2 (Formyl-MTPMRKINPLMKLIN from Cytochrome b)]
4. WKYMV[dM] (the last residue is the D form; the bought peptide is probably also an amide (surmise); source: bought: Tocris) [WKYMVm]

["-6.78 log M", "-6.49 log M", "-4.77 log M", "-7.51 log M"]
